- target-or-test-system: T1, human MCP-2 (human, UniProt P80075 24-99)
- T1 construct: also called hMCP-2; huMCP-2
- T1 sequence (looked up): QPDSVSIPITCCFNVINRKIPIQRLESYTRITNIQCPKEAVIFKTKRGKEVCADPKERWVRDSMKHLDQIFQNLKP
- experimental-details: ELISA on immobilised MCP-2, absorbance 450 nm
measure-name: EC50 (read off the curve)

Recorded EC50 (read off the curve), per entry:
| binder | EC50 (read off the curve) |
| --- | --- |
| humanized 11K2 H1-L2 (antibody, human IgG1, V domains shown, human IgG1 kappa) VH: QVQLVQSGAEVKKPGSSVKVSCKASGLNIKDTYMHWVRQAPGQGLEWIGRIDPANGNTKFDPKFQGRATITADTSTSTAYMELSSLRSEDTAVYYCARGVFGFFDYWGQGTTVTVSS VL: DIQMTQSPSSLSASVGDRVTITCKATEDIYNRLAWYQQKPGKAPKLLISGATSLETGVPSRFSGSGSGTDYTLTISSLQPEDFATYYCQQFWSAPYTFGGGTKVEIKR | ~0.3 µg/mL |
| humanized 11K2 H2-L1 (antibody, human IgG1, kappa, V domains shown, human IgG1 kappa) VH: QVQLVQSGAEVKKPGSSVKVSCKASGLTISDTYMHWVRQAPGQGLEWMGRIDPANGNTKFDPKFQGRVTITADTSTSTAYMELSSLRSEDTAVYYCARGVFGFFDYWGQGTTVTVSS VL: DIQMTQSPSSLSASVGDRVTITCKATEDIYNRLAWYQQKPGKAPKLLISGATSLETGVPSRFSGSGSGKDYTLTISSLQPEDFATYYCQQFWSAPYTFGGGTKVEIKR | ~0.2 µg/mL |

Enquiry: Which measured EC50 (read off the curve) value corresponds to humanized 11K2 H1-L1 (antibody, human IgG1, kappa, V domains shown, human IgG1 kappa; also called hu11K2) VH: QVQLVQSGAEVKKPGSSVKVSCKASGLNIKDTYMHWVRQAPGQGLEWIGRIDPANGNTKFDPKFQGRATITADTSTSTAYMELSSLRSEDTAVYYCARGVFGFFDYWGQGTTVTVSS VL: DIQMTQSPSSLSASVGDRVTITCKATEDIYNRLAWYQQKPGKAPKLLISGATSLETGVPSRFSGSGSGKDYTLTISSLQPEDFATYYCQQFWSAPYTFGGGTKVEIKR ?
Return: ~0.3 µg/mL

Enquiry: // next record humanized 11K2 H2-L2 (antibody, human IgG1, V domains shown, human IgG1 kappa) VH: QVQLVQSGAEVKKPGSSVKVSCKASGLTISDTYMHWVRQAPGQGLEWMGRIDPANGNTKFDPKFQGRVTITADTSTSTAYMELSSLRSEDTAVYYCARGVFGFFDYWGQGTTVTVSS VL: DIQMTQSPSSLSASVGDRVTITCKATEDIYNRLAWYQQKPGKAPKLLISGATSLETGVPSRFSGSGSGTDYTLTISSLQPEDFATYYCQQFWSAPYTFGGGTKVEIKR
Return: ~0.3 µg/mL
